Reported values of normalized growth for individual entries
- RUN_DESCRIPTION: chemical genetic growth profiling, strain panel (AID 1159580);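 further: tested at 20 µM; growth read once vehicle control cultures reached saturation at 30 °C; 1 = growth at the plate median or of vehicle wells; lower values mean less growth of the strain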
- CONDITION_LABEL: S. cerevisiae deletion strains, growth OD, locus YNL153C, strain GIM3, stronger effect = lower value
Hit rate of the full screen: of about 5,500 compounds, about 2,000 (36%) were called active. Not shown: some 18% with an inconclusive outcome. The list shows a part of the results.
Give the figure only, with no unit attached.

Worked examples follow.
COMPOUND: Cc1c(C)c2c(c(C)c1O)CCC(C)(CN1CCN(c3cc(N4CCCC4)nc(N4CCCC4)n3)CC1)O2 (stereo unspecified)
MEASURED: 0.995
--
COMPOUND: CC(=O)c1cc(CC=C(C)C)c(O)c(CC=C(C)C)c1
MEASURED: 0.985

Request: Fill in the blank: the reported normalized growth of NNC(=S)Nc1ccc2c(c1)OCCO2 is ____.
Response: 0.994

Request: Now the same for CC(=O)Oc1ccc(/C=C/c2cc(OC(C)=O)cc(OC(C)=O)c2)cc1
Response: 0.989

Request: Moving on to CCCN1CC(CSC)CC2c3cccc4[nH]cc(c34)CC21 (stereo unspecified)
Response: 0.998

* * *

- RUN_DESCRIPTION: chemical genetic growth profiling, strain panel (AID 1159580);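 further: tested at 20 µM; growth read once vehicle control cultures reached saturation at 30 °C; 1 = growth at the plate median or of vehicle wells; lower values mean less growth of the strain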
- CONDITION_LABEL: S. cerevisiae deletion strains, growth OD, locus YMR223W, strain ubp8, stronger effect = lower value
About 2,000 (36%) of roughly 5,500 compounds were called active. Inconclusive results (about 18%) are left out. The list shows a part of the results.
Examples of compounds with documented normalized growth follow.
Answer using only a numeral; do not append any unit.

Study these solved cases before continuing.
COMPOUND: CC(=O)c1ccc(O)c(CC=C(C)C)c1
RECORDED_ENDPOINT: normalized growth
MEASURED: 0.932

COMPOUND: CN(C)C1C(=O)C(C(N)=O)=C(O)C2(O)C(=O)C3=C(O)c4c(O)ccc(Cl)c4C(C)(O)C3CC12 (configuration not stated)
RECORDED_ENDPOINT: normalized growth
MEASURED: 0.97

COMPOUND: OC[C@H]1O[C@@H](O[C@@H]2[C@@H](CO)O[C@](O)(CO)[C@H]2O)[C@H](O)[C@@H](O)[C@H]1O
RECORDED_ENDPOINT: normalized growth
MEASURED: 0.962

COMPOUND: CCOC(=O)[C@H](CCc1ccccc1)N[C@@H](C)C(=O)N1CCC[C@H]1C(=O)O
RECORDED_ENDPOINT: normalized growth
MEASURED: 1.02

COMPOUND: CCC(C)[C@H]1O[C@]2(C=C[C@@H]1C)C[C@@H]1C[C@@H](C/C=C(\C)[C@@H](OC3C[C@H](OC)C(O[C@H]4C[C@H](OC)[C@@H](O)[C@H](C)O4)[C@H](C)O3)[C@@H](C)/C=C/C=C3\CO[C@@H]4[C@H](O)C(C)=C[C@@H](C(=O)O1)[C@]34O)O2 (some centres not stated)
RECORDED_ENDPOINT: normalized growth
MEASURED: 0.953

Request: So what does the record say about normalized growth for C=C(C)C1CCC(C)(O)C2CC3OC3(C)C2C1 (configuration not stated) ?
Response: 1.01

Request: Same for CO[C@H]1CC(O[C@@H]2/C(C)=C/C[C@@H]3C[C@@H](C[C@]4(CC[C@H](C)[C@@H](C5CCCCC5)O4)O3)OC(=O)[C@@H]3C=C(C)/C(=N\O)[C@H]4OC/C(=C\C=C\[C@@H]2C)[C@]43O)O[C@@H](C)C1O (some centres not stated)
Response: 0.993

Request: And what about the compound OC[C@H]1O[C@@](CO)(O[C@@H]2O[C@H](CO)[C@@H](O)[C@H](O)[C@H]2O)[C@@H](O[C@@H]2O[C@H](CO)[C@@H](O)[C@H](O)[C@H]2O)[C@@H]1O ?
Response: 1.03

Request: Do the same for CN(C)[C@@H]1C(=O)C(C(N)=O)=C(O)[C@@]2(O)C(=O)C3=C(O)c4c(O)ccc(Cl)c4[C@@](C)(O)[C@H]3C[C@@H]12 please
Response: 0.985

Request: CC(N=C(NC#N)Nc1ccncc1)C(C)(C)C (configuration not stated) , same question.
Response: 0.994

Request: And what about the compound CC(C)=CC1C(C(=O)O)C1(C)C (configuration not stated) ?
Response: 0.988

Request: What do you have for CNNC ?
Response: 1
